- Tested on: ACHN renal
- measurement-protocol: NCI-60 one-dose screen, 48 h
- test-settings: 10 µM unless noted
The panel holds about 83,000 compounds, 20% with a hit somewhere; the sample as a whole holds those more often. Calls of active or inactive are those of the source. Rule for the calls: active = growth percent below 10; inactive = the rest.
Classes used: y = active, n = inactive

INSERT INTO assay_data (compound, label_class) VALUES
  ('C=CC(=O)Nc1cccc(Nc2nc(Nc3ccc(OCCOC(F)F)cc3)ncc2F)c1', 'y'),
  ('CSc1ccc(C(=O)C[n+]2cccc(C)c2)cc1', 'n'),
  ('O=S1(=O)N(CCNc2nccc(-c3c(-c4cccc(O)c4)nc4sccn34)n2)CCN1Cc1ccccc1', 'n'),
  ('CN[C@@H](CCCNC(N)=NC/C=C(/C)CCC=C(C)C)C(=O)N(C)[C@@H](CCCNC(N)=NCC=C(C)C)C(=O)N[C@H](C)[C@H](OS(=O)(=O)O)c1ccc(OS(=O)(=O)O)c(COS(=O)(=O)O)c1', 'n'),
  ('COc1cc2c(/C=C3/C(=O)Nc4ccc(O)cc43)c(Cl)n(Cc3cc(OC)c(OC)c(OC)c3)c2cc1C', 'n'),
  ('COc1cccc(/C=N/C(=S)NC2(C)C3CCC(C3)C2(C)C)c1O (stereo not given)', 'n'),
  ('Fc1cccc(F)c1C#Cc1ccc2cccnc2c1', 'n'),
  ('O=C1OC(=O)C2C3CC(c4ccccc43)C12 (stereo not given)', 'n'),
  ('COc1ccc(CCNC=O)cc1OC', 'n'),
  ('COc1ccc(/C=C/C(=O)/C=C(/C=C/c2ccc(OC)c(OC)c2OC)OB(F)F)c(OC)c1OC', 'y');

---

- System: HCC-2998 colon
- measurement-protocol: NCI-60 one-dose screen, 48 h (100 = growth as untreated, 0 = no growth, -100 = all killed)
- test-settings: 10 µM unless noted
The panel holds about 83,000 compounds, 20% with a hit somewhere; the sample as a whole holds those more often.
Tick T if growth is 90% or greater. Tick F if growth is less than 90%.

INSERT INTO assay_data (molecule, system_name, label_class) VALUES
  ('CCn1c(C)nc([N+](=O)[O-])c1Sc1nc(N)nc2nc[nH]c12', 'HCC-2998 colon', 'F'),
  ('CC(=S)Nc1ccccc1', 'HCC-2998 colon', 'T'),
  ('COc1ccc(-c2nnc(SCC(=O)Nc3ccc(C(=O)/C=C/c4ccccc4)cc3)o2)cc1OC', 'HCC-2998 colon', 'T'),
  ('COc1ccc(/C=C/C(=O)c2ccc(NC(=O)CSc3nnc(-c4cc(OC)c(OC)c(OC)c4)o3)cc2)cc1', 'HCC-2998 colon', 'F'),
  ('O=C1C(Cl)=C(Nc2ccccc2)C(=O)C(Cl)=C1Nc1ccccc1', 'HCC-2998 colon', 'T'),
  ('COc1ccc2c(c1)OC(N)=C(C#N)C2c1ccc(F)c(F)c1 (centres undefined)', 'HCC-2998 colon', 'F'),
  ('CCCCn1c(-c2cccc(OC)c2)nc2cc(OC)c(OC)cc2c1=O', 'HCC-2998 colon', 'T'),
  ('C#C[C@H](O)/C=C/CCCCCCC#C[C@H](O)CC[C@@H](O)C#CCCCCCC/C=C/[C@@H](O)C#C', 'HCC-2998 colon', 'T'),
  ('O=C(Nc1ccc(-n2ccc3c(NC(=O)c4ccccc4)nccc32)cc1)Nc1cccc(C(F)(F)F)c1', 'HCC-2998 colon', 'F'),
  ('COc1ccc(/C=C/C(=O)c2ccc(Oc3ncnc4ccccc34)cc2)cc1OC', 'HCC-2998 colon', 'F'),
  ('CCOC(=O)c1[nH]c(-c2ccc(Cl)cc2)cc1-c1cccnc1', 'HCC-2998 colon', 'F'),
  ('COc1cc(NC(C)CCCN2C(=O)c3ccccc3C2=O)c2nccc(C)c2c1OC (centres undefined)', 'HCC-2998 colon', 'T'),
  ('O=C(Nc1ccc(-n2ccc3c(NC(=O)c4ccccc4)ncnc32)cc1)Nc1cccc(Cl)c1Cl', 'HCC-2998 colon', 'F'),
  ('CSc1ccc(C(=O)C[n+]2cccc(C)c2)cc1', 'HCC-2998 colon', 'T'),
  ('CCOc1ccc(NC(=O)Nc2cc(C(C)C)ccc2C)cc1', 'HCC-2998 colon', 'F'),
  ('Cc1ccccc1C[P+](c1ccccc1)(c1ccccc1)c1ccccc1', 'HCC-2998 colon', 'F'),
  ('C#CCn1c(-c2cc(OC)c(OC)cc2Br)nc(-c2ccccc2)c1-c1ccccc1', 'HCC-2998 colon', 'F'),
  ('CO[C@H]1/C=C/C=C/C=C/C[C@H](OC(=O)[C@@H](C)NC(=O)C2CCCCC2)[C@H](C)[C@@H](O)/C(C)=C\CCC2=CC(=O)C=C(NC(=O)C1)C2=O', 'HCC-2998 colon', 'F'),
  ('Cc1cc(SCc2ccc(Cl)cc2Cl)nc(SCc2ccc(Cl)cc2Cl)n1', 'HCC-2998 colon', 'T'),
  ('COc1cccc(/C=N/C(=S)NC2(C)C3CCC(C3)C2(C)C)c1O (centres undefined)', 'HCC-2998 colon', 'T'),
  ('CCC1CN2C(=N1)c1ccccc1-c1cc(Cl)ccc12 (centres undefined)', 'HCC-2998 colon', 'F'),
  ('COc1ccc(-c2cc3ccc(N(C)C)cc3nc2N)c(F)c1', 'HCC-2998 colon', 'F'),
  ('CS(=O)(=O)OCC(COS(C)(=O)=O)C(c1ccccc1)c1ccccc1', 'HCC-2998 colon', 'T'),
  ('O=[N+]([O-])c1ccccc1NC1c2ccccc2Oc2ccccc21', 'HCC-2998 colon', 'F'),
  ('COc1ccc(-c2c(C#N)cnc(N)c2-c2nc3cc(C)c(C)cc3[nH]2)cc1', 'HCC-2998 colon', 'F'),
  ('C=C1C(=O)O[C@H]2[C@H]1CC/C(COC(=O)CCCC(=O)OC/C1=C/CC[C@@]3(C)O[C@H]3[C@H]3OC(=O)C(=C)[C@@H]3CC1)=C\CC[C@@]1(C)O[C@@H]21', 'HCC-2998 colon', 'F'),
  ('O=C(COc1ccc(Cl)cc1)N1CCN(Cc2ccc3c(c2)OCO3)CC1', 'HCC-2998 colon', 'T'),
  ('COc1ccc(-c2coc3c(CO)c(O)ccc3c2=O)cc1', 'HCC-2998 colon', 'F'),
  ('COc1ccccc1S(=O)(=O)Nc1ccc2c3c(cc(-c4cnn(C)c4)nc13)C(=O)N2C', 'HCC-2998 colon', 'F'),
  ('CCCCCCCCCCCCCCCCNc1ccccc1', 'HCC-2998 colon', 'T'),
  ('COc1ccccc1N1CCN(CCCOc2ccc(OCCCN3CCN(c4ccccc4OC)CC3)c(C(=O)c3cc(OC)c(OC)c(OC)c3)c2)CC1', 'HCC-2998 colon', 'T'),
  ('CS(=O)(=O)Nc1cccc(-c2ccc3ncnc(Nc4cncc(Cl)c4)c3c2)c1', 'HCC-2998 colon', 'F'),
  ('COc1cc2c(/C=C3/C(=O)Nc4ccc(O)cc43)c(Cl)n(Cc3cc(OC)c(OC)c(OC)c3)c2cc1C', 'HCC-2998 colon', 'F'),
  ('COc1ccc(-c2nnc(NC(=O)CN3CCN(c4cc5c(cc4F)c(=O)c(C(=O)O)cn5C4CC4)CC3)s2)cc1OC', 'HCC-2998 colon', 'T'),
  ('Cc1c(NC(=O)c2sc3nc4c(cc3c2N)CN(Cc2ccccc2)CC4)cccc1C(F)(F)F', 'HCC-2998 colon', 'F'),
  ('CNC(=O)NN', 'HCC-2998 colon', 'T'),
  ('O=C(CNc1cccnc1)Nc1ccc(C(=O)/C=C/c2ccc(Cl)cc2)cc1', 'HCC-2998 colon', 'F');

Sourced from PubChem BioAssay (NCI)
